experiment: microPET imaging of U87MG tumor xenografts in mice; type: in vivo, nude mice; details: nude, mouse, tumor versus muscle (background), iv, total radioactivity
QUANTITY NAME: tissue to tissue ratio at 2 h
Please reply with the value in numeric form only.

Input line: Field request: tissue to tissue ratio at 2 h | item: N=C(N)NCCC[C@@H]1NC(=O)[C@H](CCCCNC(=O)CC[C@H](NC(=O)COCCOCCOCCNC(=O)[C@@H]2CSC(c3nc4ccc(OCCF)cc4s3)=N2)C(=O)NCCCC[C@@H]2NC(=O)[C@@H](Cc3ccc(O)cc3)NC(=O)[C@H](CC(=O)O)NC(=O)CNC(=O)[C@H](CCCNC(=N)N)NC2=O)NC(=O)[C@@H](Cc2ccc(O)cc2)NC(=O)[C@H](CC(=O)O)NC(=O)CNC1=O [[^18F]CBTRGD2]
Output line: 6.3

Measured values drawn from paper PMC3447118 for this set.
